Please respond with reported Inhibition of Maximal Response for every item in the list.
- system_under_test: PTHR1 receptor
- Sequence (P25961 whole entry): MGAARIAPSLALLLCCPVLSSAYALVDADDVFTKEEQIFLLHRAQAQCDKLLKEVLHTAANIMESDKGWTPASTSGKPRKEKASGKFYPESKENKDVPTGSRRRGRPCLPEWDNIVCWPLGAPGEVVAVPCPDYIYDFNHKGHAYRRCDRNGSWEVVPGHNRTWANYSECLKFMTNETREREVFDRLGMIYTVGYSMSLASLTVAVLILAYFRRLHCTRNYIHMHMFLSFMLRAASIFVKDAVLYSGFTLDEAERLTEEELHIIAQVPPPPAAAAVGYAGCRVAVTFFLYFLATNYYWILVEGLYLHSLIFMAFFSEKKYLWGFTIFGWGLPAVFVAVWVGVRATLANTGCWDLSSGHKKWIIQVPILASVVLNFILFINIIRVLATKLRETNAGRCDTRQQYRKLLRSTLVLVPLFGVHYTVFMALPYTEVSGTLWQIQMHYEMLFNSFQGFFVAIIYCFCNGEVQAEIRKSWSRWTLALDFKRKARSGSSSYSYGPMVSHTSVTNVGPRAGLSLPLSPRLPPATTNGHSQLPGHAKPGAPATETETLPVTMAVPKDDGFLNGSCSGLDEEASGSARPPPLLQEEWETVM
* marks the point of attachment. Palmitoyl = CCCCCCCCCCCCCCCC(=O)*
Param answer (str): number followed by unit.

For Palmitoyl-LAYFRRLHSTRNY-NH2 (SMILES CCCCCCCCCCCCCCCC(=O)N[C@@H](CC(C)C)C(=O)N[C@@H](C)C(=O)N[C@@H](Cc1ccc(O)cc1)C(=O)N[C@@H](Cc1ccccc1)C(=O)N[C@@H](CCCNC(=N)N)C(=O)N[C@@H](CCCNC(=N)N)C(=O)N[C@@H](CC(C)C)C(=O)N[C@@H](Cc1c[nH]cn1)C(=O)N[C@@H](CO)C(=O)N[C@H](C(=O)N[C@@H](CCCNC(=N)N)C(=O)N[C@@H](CC(N)=O)C(=O)N[C@@H](Cc1ccc(O)cc1)C(N)=O)[C@@H](C)O) [Compound 3] , what is its reported Inhibition of Maximal Response?
-51.4%

For Palmitoyl-AGRSDTRQQYRKLLFA-NH2 (SMILES CCCCCCCCCCCCCCCC(=O)N[C@@H](C)C(=O)NCC(=O)N[C@@H](CCCNC(=N)N)C(=O)N[C@@H](CO)C(=O)N[C@@H](CC(=O)O)C(=O)N[C@H](C(=O)N[C@@H](CCCNC(=N)N)C(=O)N[C@@H](CCC(N)=O)C(=O)N[C@@H](CCC(N)=O)C(=O)N[C@@H](Cc1ccc(O)cc1)C(=O)N[C@@H](CCCNC(=N)N)C(=O)N[C@@H](CCCCN)C(=O)N[C@@H](CC(C)C)C(=O)N[C@@H](CC(C)C)C(=O)N[C@@H](Cc1ccccc1)C(=O)N[C@@H](C)C(N)=O)[C@@H](C)O) [Compound 94] , what is its reported Inhibition of Maximal Response?
-24.4%

For Palmitoyl-GSEKKYLWGFTVF-NH2 (SMILES CCCCCCCCCCCCCCCC(=O)NCC(=O)N[C@@H](CO)C(=O)N[C@@H](CCC(=O)O)C(=O)N[C@@H](CCCCN)C(=O)N[C@@H](CCCCN)C(=O)N[C@@H](Cc1ccc(O)cc1)C(=O)N[C@@H](CC(C)C)C(=O)N[C@@H](Cc1c[nH]c2ccccc12)C(=O)NCC(=O)N[C@@H](Cc1ccccc1)C(=O)N[C@H](C(=O)N[C@H](C(=O)N[C@@H](Cc1ccccc1)C(N)=O)C(C)C)[C@@H](C)O) [Compound 41] , what is its reported Inhibition of Maximal Response?
17.7%

For Palmitoyl-TNAGASDTRQQYRKLL-NH2 (SMILES CCCCCCCCCCCCCCCC(=O)N[C@H](C(=O)N[C@@H](CC(N)=O)C(=O)N[C@@H](C)C(=O)NCC(=O)N[C@@H](C)C(=O)N[C@@H](CO)C(=O)N[C@@H](CC(=O)O)C(=O)N[C@H](C(=O)N[C@@H](CCCNC(=N)N)C(=O)N[C@@H](CCC(N)=O)C(=O)N[C@@H](CCC(N)=O)C(=O)N[C@@H](Cc1ccc(O)cc1)C(=O)N[C@@H](CCCNC(=N)N)C(=O)N[C@@H](CCCCN)C(=O)N[C@@H](CC(C)C)C(=O)N[C@@H](CC(C)C)C(N)=O)[C@@H](C)O)[C@@H](C)O) [Compound 76] , what is its reported Inhibition of Maximal Response?
2.4%
